Values compiled from the supplement of paper PMC9170038.

# Test system: MS2 coat protein
# experiment.notes: apparent KD of MS2 coat protein; designed switch direction (-1 OFF switch, 1 ON switch): -1; higher = weaker reporter binding
# test.settings: input ligand: FMN 200 uM
In this section we review reported apparent KD of MS2 coat protein values for a set of sequences.
readout.type: apparent KD of MS2 coat protein (nM)

sequence.code | readout.type | numeric.value
GCUAGUCAUGUCAGGAUAUGCUGUUCCUUGGAACAGCAGAAGGGACAUGAGGAUCACCCAUGUGCCUAACUAGC [Mat - Exclusion 4 - JL Mod - D12] (Eterna round: R97, puzzle: Brourd's mod of Exclusion 4) | apparent KD of MS2 coat protein | 558
ACAUGAGGAUCACCCAUGUCUGGCGGGUCCUCUCCGGCUGUUGAGGAUAUAGUUCGGUAUCCGCGCUAGAAGGUGAGGGCCGGC [Aenatbe mod 20] (Eterna round: R96, puzzle: Exclusion NG 3) | apparent KD of MS2 coat protein | 21.3
AACGGUGGGUAGGAUAUCCGGUUCUAGUUGCCAGGAGAAGGGCCCACAUGAGGAUCACCCAUGUGGGUGGGCUC [Maesri] (Eterna round: R96, puzzle: Exclusion 6) | apparent KD of MS2 coat protein | 44.6
GUCCGGCGUGUAGGAUAUGGUUCCGUUUCGGUUCCAGAAGGACAUGAGGAUCACCCAUGUGCCUGUCGUCGGUCGUCACCGGGC [salish99_ExNG1_r04_220] (Eterna round: R96, puzzle: Exclusion NG 1) | apparent KD of MS2 coat protein | 19.5
GUUUACAAGCUAAGAUCCUACAUGAGGAUCACCCAUGUGGUCCGGUGACGUGAGUCACCGGACUUAGCUCGUCUUGC [salish99_S_TOV1_R5_089] (Eterna round: R97, puzzle: Sensor, turn-off variant 1) | apparent KD of MS2 coat protein | 36
UUUGCAAGCUUUUGAUCCCACAUGAGGAUCACCCAUGUUGCUGCCGUGAGGUAGCAUUUAACAAAUGCUCGUCUUAU [JL TOV1 3.53] (Eterna round: R97, puzzle: Sensor, turn-off variant 1) | apparent KD of MS2 coat protein | 555
UUUAAUUUUUUUUUUUUACAAGCUUUUUGCUCGUCUUAUACAUGAGGAUCACCCAUGUGGGUAAGGGAUAAAUUAUC [JMF 37] (Eterna round: R96, puzzle: Sensor v3, turn-off variant 2) | apparent KD of MS2 coat protein | 65.4
CAGACACAUGAGGAUCACCCAUGUAAGGAUAUGAACUGUGGUAACGGAGCCAGCGGGUUCAGAAGGUGCGUGAC [Eternabot (L1) Solution 19] (Eterna round: R97, puzzle: Exclusion 1) | apparent KD of MS2 coat protein | 77.9
UGCCGGCAUGUAAGGAUAUCCAGGAGAUGUAGAUCGGAGAAGGUACAUGAGGAUCACCCAUGUAUUCCAAUAAA [BmEX4 C.19] (Eterna round: R97, puzzle: Brourd's mod of Exclusion 4) | apparent KD of MS2 coat protein | 18
GAACUGAGGCAAAGCUUUAGUCGUACAUGAGGAUCACCCAUGUAGGAUAUGGUAGGCAAAGCAUACCAGAAGGACAGAGUGAUC [Mat - Exclusion NG 3 - Mod of JL - D61] (Eterna round: R96, puzzle: Exclusion NG 3) | apparent KD of MS2 coat protein | 877
GUUGUUUAUGUAGGAUAUGCCUGGCGUGCCUUAGCAGAAGGACAUGAGGAUCACCCAUGUAUUGCGGUCUGCGUUCAGAUCGCU [salish99_ExNG1_r4_021] (Eterna round: R96, puzzle: Exclusion NG 1) | apparent KD of MS2 coat protein | 37
UCAAGUUUUUAGAUUCUUAACAUGAGGAUCACCCAUGUGCUCGUCUUGUUGUACUAUCACUCGAAAGUGAUAGUACA (Eterna round: R97, puzzle: Sensor, turn-off variant 1) | apparent KD of MS2 coat protein | 43.5
